Test system: SKOV-3
ASSAY_COMMENT: SRB colorimetric cell growth inhibition assay, SKOV-3
Format: cell-based
CONDITIONS_USED: SKOV-3; LC=cell killing (cytotoxic effect); read-out: LC50 SKOV-3
MEASURED_ENDPOINT: CC50 (µM)
Return type: number; implicit unit µM.

Task: Complete the entry with CC50 for COc1cc(-c2c3n(c4c(=O)oc5cc(OC(C)=O)c(OC)cc5c24)CCc2cc(OC)c(OC(C)=O)cc2-3)ccc1OC(C)=O
Result: 15.9

----------
ASSAY_COMMENT: SRB colorimetric cell growth inhibition assay, H-MEC-1
Format: cell-based
CONDITIONS_USED: human; H-MEC-1; cell killing (cytotoxic effect); read-out: LC50 H-MEC-1
Method: A colorimetric type of assay, using sulforhodamine B (SRB) reaction has been adapted for a quantitative measurement of cell growth and viability (following the technique described by P. A. Skehan, et al., J. Natl. Cancer Inst. 1990, 82, 1107-1112). […] The values for mean +/− SD of data from triplicate wells are calculated. Some parameters for cellular responses can be calculated: GI=growth inhibition, TGI=total growth inhibition (cytostatic effect) and LC=cell killing (cytotoxic effect).
Parameter LC50 (concentration giving 50% net cell killing): see the listing below.
Return type: number; implicit unit nM.

Recorded LC50 (concentration giving 50% net cell killing), per entry:
COMPOUND	READING_UNIT	QUANTITATIVE_READOUT
COc1cc2ccn3c(c(-c4ccc(OC(=O)[C@@H](N)Cc5ccccc5)c(OC)c4)c4c5cc(OC)c(OC(=O)[C@@H](N)Cc6ccccc6)cc5oc(=O)c43)c2cc1OC [Compound 18]	nM	2930
COc1cc(-c2c3n(c4c(=O)oc5cc(OC(=O)[C@@H](N)Cc6c[nH]c7ccccc67)c(OC)cc5c24)CCc2cc(OC(=O)[C@@H](N)Cc4c[nH]c5ccccc45)c(OC)cc2-3)ccc1OC(=O)[C@@H](N)Cc1c[nH]c2ccccc12 [Compound 24]	nM	5970
COc1cc(-c2c3n(c4c(=O)oc5cc(OC(=O)[C@H](Cc6c[nH]c7ccccc67)NC(=O)OC(C)(C)C)c(OC)cc5c24)CCc2cc(OC(=O)[C@H](Cc4c[nH]c5ccccc45)NC(=O)OC(C)(C)C)c(OC)cc2-3)ccc1OC(=O)[C@H](Cc1c[nH]c2ccccc12)NC(=O)OC(C)(C)C [Compound 29]	nM	290

Task: Complete the entry with LC50 (concentration giving 50% net cell killing) for COc1cc(-c2c3n(c4c(=O)oc5cc(OC(=O)[C@H](NC(=O)OC(C)(C)C)C(C)C)c(OC)cc5c24)CCc2cc(OC(=O)[C@H](NC(=O)OC(C)(C)C)C(C)C)c(OC)cc2-3)ccc1OC(=O)[C@H](NC(=O)OC(C)(C)C)C(C)C [Compound 34]
Result: 3440

Task: Complete the entry with LC50 (concentration giving 50% net cell killing) for COc1cc(-c2c3n(c4c(=O)oc5cc(OC(=O)[C@@H](N)C[S][Fm])c(OC)cc5c24)CCc2c-3cc(OC)c(OC)c2OC(=O)[C@@H](N)C[S][Fm])ccc1OC(=O)[C@@H](N)C[S][Fm] [Compound 23]
Result: 2870

----------
System: IGROV-ET
ASSAY_COMMENT: SRB colorimetric cell growth inhibition assay, IGROV-ET (ET-743 resistant)
Format: cell-based
CONDITIONS_USED: Homo sapiens, IGROV-ET; GI=growth inhibition; read-out: GI50 IGROV-ET
MEASURED_ENDPOINT: GI50 (nM)
Return type: number; implicit unit nM.

Recorded GI50, per entry:
COMPOUND	STUDY_SYSTEM	QUANTITATIVE_READOUT
COc1cc(-c2c3n(c4c(=O)oc5cc(OC(=O)[C@H](C)NC(=O)[C@H](C)NC(=O)OC(C)(C)C)c(OC)cc5c24)CCc2cc(OC(=O)[C@H](C)NC(=O)[C@H](C)NC(=O)OC(C)(C)C)c(OC)cc2-3)ccc1OC(=O)[C@H](C)NC(=O)[C@H](C)NC(=O)OC(C)(C)C [Compound 7]	IGROV-ET	1860
COc1cc(-c2c3c4cc(OC)c(OC(=O)CCc5ccccc5)cc4oc(=O)c3n3ccc4cc(OC(=O)CCc5ccccc5)c(OC)cc4c23)ccc1OC(=O)CCc1ccccc1 [Compound 8]	IGROV-ET	3350
COc1cc(-c2c3n(c4c(=O)oc5cc(OC(=O)[C@@H](N)Cc6c[nH]c7ccccc67)c(OC)cc5c24)CCc2cc(OC(=O)[C@@H](N)Cc4c[nH]c5ccccc45)c(OC)cc2-3)ccc1OC(=O)[C@@H](N)Cc1c[nH]c2ccccc12 [Compound 24]	IGROV-ET	1310

Task: GET GI50 | system: IGROV-ET | item: COc1cc(-c2c3c4cc(OC)c(OC(=O)[C@@H](N)C(C)C)cc4oc(=O)c3n3ccc4c(OC(=O)[C@@H](N)C(C)C)c(OC)c(OC)cc4c23)ccc1OC(=O)[C@@H](N)C(C)C [Compound 35]
Result: 192

Task: GET GI50 | system: IGROV-ET | item: COc1cc(-c2c3c4cc(OC)c(OC(=O)[C@@H](N)Cc5ccccc5)cc4oc(=O)c3n3ccc4cc(OC(=O)[C@@H](N)Cc5ccccc5)c(OC)cc4c23)ccc1OC(=O)[C@@H](N)Cc1ccccc1 [Compound 204]
Result: 18

Task: GET GI50 | system: IGROV-ET | item: COc1cc(-c2c3c4cc(OC)c(OC(=O)[C@H](C)N)cc4oc(=O)c3n3ccc4cc(OC(=O)[C@H](C)N)c(OC)cc4c23)ccc1OC(=O)[C@H](C)N [Compound 40]
Result: 85.2

Task: GET GI50 | system: IGROV-ET | item: COc1cc(-c2c3n(c4c(=O)oc5cc(OC(=O)[C@@H](N)Cc6ccccc6)c(OC)cc5c24)CCc2cc(OC(=O)[C@@H](N)Cc4ccccc4)c(OC)cc2-3)ccc1OC(=O)[C@@H](N)Cc1ccccc1 [Compound 115]
Result: 1700

Task: GET GI50 | system: IGROV-ET | item: COc1cc2ccn3c(c(-c4ccc(OC(=O)[C@@H](N)C(C)C)c(OC)c4)c4c5cc(OC)c(OC(=O)[C@@H](N)C(C)C)cc5oc(=O)c43)c2cc1OC [Compound 19]
Result: 761

Task: GET GI50 | system: IGROV-ET | item: COc1cc(-c2c3n(c4c(=O)oc5cc(OC(=O)[C@H](NC(=O)OC(C)(C)C)C(C)C)c(OC)cc5c24)CCc2cc(OC(=O)[C@H](NC(=O)OC(C)(C)C)C(C)C)c(OC)cc2-3)ccc1OC(=O)[C@H](NC(=O)OC(C)(C)C)C(C)C [Compound 34]
Result: 2070

----------
System: SK-MEL-28
ASSAY_COMMENT: SRB colorimetric cell growth inhibition assay, SK-MEL-28
Assay type: cell-based
CONDITIONS_USED: human
MEASURED_ENDPOINT: CC50 (µM)
Return type: number; implicit unit µM.

COMPOUND	CC50 [µM]
COc1cc(-c2c3c4cc(OC)c(OC(=O)[C@@H](N)C(C)C)cc4oc(=O)c3n3ccc4c(OC(=O)[C@@H](N)C(C)C)c(OC)c(OC)cc4c23)ccc1OC(=O)[C@@H](N)C(C)C [Compound 190]	10.7
COc1cc(-c2c3n(c4c(=O)oc5cc(OC(=O)[C@@H](N)C(C)C)c(OC)cc5c24)CCc2cc(OC(=O)[C@@H](N)C(C)C)c(OC)cc2-3)ccc1OC(=O)[C@@H](N)C(C)C	8.76

Now look at this entry.
Task: Complete the entry with CC50 for COc1cc(-c2c3c4cc(OC)c(OC(=O)[C@@H](N)C(C)C)cc4oc(=O)c3n3ccc4c(OC(=O)[C@@H](N)C(C)C)c(OC)c(OC)cc4c23)ccc1OC(=O)[C@@H](N)C(C)C [Compound 35]
Result: 2.77

----------
Tested on: IGROV-ET
ASSAY_COMMENT: SRB colorimetric cell growth inhibition assay, IGROV-ET (ET-743 resistant)
Assay type: cell-based
CONDITIONS_USED: Homo sapiens, IGROV-ET; total growth inhibition (cytostatic effect); read-out: TGI IGROV-ET
MEASURED_ENDPOINT: IC (TGI) (µM)
Return type: number; implicit unit µM.

Recorded IC (TGI), per entry:
SMI	IC (TGI) / µM
COc1cc(-c2c3c4cc(OC)c(OC(=O)C[C@H](N)C(C)C)cc4oc(=O)c3n3ccc4cc(OC(=O)C[C@H](N)C(C)C)c(OC)cc4c23)ccc1OC(=O)C[C@H](N)C(C)C	0.19
COc1cc(-c2c3n(c4c(=O)[nH]c5cc(O)c(OC)cc5c24)CCc2cc(O)c(OC)cc2-3)ccc1O	1.64
COc1cc(-c2c3c4cc(OC)c(O)cc4oc(=O)c3n3ccc4c(N)cccc4c23)ccc1O	21.3
COc1cc(-c2c3n(c4c(=O)oc5cc(OC(=O)[C@@H](N)C(C)C)c(OC)cc5c24)CCc2cc(OC(=O)[C@@H](N)C(C)C)c(OC)cc2-3)ccc1OC(=O)[C@@H](N)C(C)C	2.11
COc1cc(-c2c3n(c4c(=O)oc5cc(OC(=O)[C@H](Cc6c[nH]c7ccccc67)NC(=O)OC(C)(C)C)c(OC)cc5c24)CCc2cc(OC(=O)[C@H](Cc4c[nH]c5ccccc45)NC(=O)OC(C)(C)C)c(OC)cc2-3)ccc1OC(=O)[C@H](Cc1c[nH]c2ccccc12)NC(=O)OC(C)(C)C	7.35

Task: Complete the entry with IC (TGI) for COc1cc(-c2c3c4cc(OC)c(OC(=O)[C@@H](NC(=O)OC(C)(C)C)C(C)C)cc4oc(=O)c3n3ccc4cc(OC(=O)[C@@H](NC(=O)OC(C)(C)C)C(C)C)c(OC)cc4c23)ccc1OC(=O)[C@@H](NC(=O)OC(C)(C)C)C(C)C
Result: 4.51

Task: Complete the entry with IC (TGI) for COc1cc2c(cc1O)CCn1c-2c(Br)c2c3cc(OC)c(O)cc3oc(=O)c21
Result: 13.4

Task: Complete the entry with IC (TGI) for CCCCCCCC(=O)Oc1ccc(-c2c3n(c4c(=O)oc5cc(OC(=O)CCCCCCC)c(OC)cc5c24)CCc2cc(OC(=O)CCCCCCC)c(OC)cc2-3)cc1OC
Result: 11.4
